Entry source: patent US9895367B2

Assay: Bioavailability study in rats (oral, LCMS of blood)
Type: in vivo
Conditions: rat, wistar albino male rats, fasted overnight, average
TEST READOUT: Tmax (h)
Give bare numbers, in h.

// Tmax lookup, key: Cc1ccc(NC(=O)c2cc(C(F)(F)F)cc(C(F)(F)F)c2)cc1Nc1nccc(-c2cccnc2)n1
8.7
